Target sequence: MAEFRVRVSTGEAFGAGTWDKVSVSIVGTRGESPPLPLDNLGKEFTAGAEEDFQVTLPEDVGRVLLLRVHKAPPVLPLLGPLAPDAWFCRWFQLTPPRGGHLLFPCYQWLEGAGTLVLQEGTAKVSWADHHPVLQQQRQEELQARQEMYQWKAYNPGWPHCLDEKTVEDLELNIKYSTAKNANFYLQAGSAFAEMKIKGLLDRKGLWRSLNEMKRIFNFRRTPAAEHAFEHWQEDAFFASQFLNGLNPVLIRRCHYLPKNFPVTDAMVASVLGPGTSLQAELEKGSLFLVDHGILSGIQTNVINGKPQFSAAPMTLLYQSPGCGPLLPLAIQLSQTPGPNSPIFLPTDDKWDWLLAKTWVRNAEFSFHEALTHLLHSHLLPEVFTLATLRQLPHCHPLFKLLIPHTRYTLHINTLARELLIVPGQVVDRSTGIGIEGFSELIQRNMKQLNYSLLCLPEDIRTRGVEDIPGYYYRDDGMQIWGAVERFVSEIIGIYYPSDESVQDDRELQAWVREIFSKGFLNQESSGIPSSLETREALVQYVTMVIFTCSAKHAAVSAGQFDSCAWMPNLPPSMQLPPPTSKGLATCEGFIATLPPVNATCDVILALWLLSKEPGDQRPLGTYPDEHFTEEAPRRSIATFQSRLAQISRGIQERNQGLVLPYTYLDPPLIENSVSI

| smilesData | IC50 |
| --- | --- |
| Cc1ccc(O)c(-c2cc(-c3ccccc3C)[nH]n2)c1 | > 50 µM |
